biological target: RNA-directed RNA polymerase L (Toscana virus) (UniProt P37800); conditions: dose 25.0 µM
Sequence (P37800 whole entry): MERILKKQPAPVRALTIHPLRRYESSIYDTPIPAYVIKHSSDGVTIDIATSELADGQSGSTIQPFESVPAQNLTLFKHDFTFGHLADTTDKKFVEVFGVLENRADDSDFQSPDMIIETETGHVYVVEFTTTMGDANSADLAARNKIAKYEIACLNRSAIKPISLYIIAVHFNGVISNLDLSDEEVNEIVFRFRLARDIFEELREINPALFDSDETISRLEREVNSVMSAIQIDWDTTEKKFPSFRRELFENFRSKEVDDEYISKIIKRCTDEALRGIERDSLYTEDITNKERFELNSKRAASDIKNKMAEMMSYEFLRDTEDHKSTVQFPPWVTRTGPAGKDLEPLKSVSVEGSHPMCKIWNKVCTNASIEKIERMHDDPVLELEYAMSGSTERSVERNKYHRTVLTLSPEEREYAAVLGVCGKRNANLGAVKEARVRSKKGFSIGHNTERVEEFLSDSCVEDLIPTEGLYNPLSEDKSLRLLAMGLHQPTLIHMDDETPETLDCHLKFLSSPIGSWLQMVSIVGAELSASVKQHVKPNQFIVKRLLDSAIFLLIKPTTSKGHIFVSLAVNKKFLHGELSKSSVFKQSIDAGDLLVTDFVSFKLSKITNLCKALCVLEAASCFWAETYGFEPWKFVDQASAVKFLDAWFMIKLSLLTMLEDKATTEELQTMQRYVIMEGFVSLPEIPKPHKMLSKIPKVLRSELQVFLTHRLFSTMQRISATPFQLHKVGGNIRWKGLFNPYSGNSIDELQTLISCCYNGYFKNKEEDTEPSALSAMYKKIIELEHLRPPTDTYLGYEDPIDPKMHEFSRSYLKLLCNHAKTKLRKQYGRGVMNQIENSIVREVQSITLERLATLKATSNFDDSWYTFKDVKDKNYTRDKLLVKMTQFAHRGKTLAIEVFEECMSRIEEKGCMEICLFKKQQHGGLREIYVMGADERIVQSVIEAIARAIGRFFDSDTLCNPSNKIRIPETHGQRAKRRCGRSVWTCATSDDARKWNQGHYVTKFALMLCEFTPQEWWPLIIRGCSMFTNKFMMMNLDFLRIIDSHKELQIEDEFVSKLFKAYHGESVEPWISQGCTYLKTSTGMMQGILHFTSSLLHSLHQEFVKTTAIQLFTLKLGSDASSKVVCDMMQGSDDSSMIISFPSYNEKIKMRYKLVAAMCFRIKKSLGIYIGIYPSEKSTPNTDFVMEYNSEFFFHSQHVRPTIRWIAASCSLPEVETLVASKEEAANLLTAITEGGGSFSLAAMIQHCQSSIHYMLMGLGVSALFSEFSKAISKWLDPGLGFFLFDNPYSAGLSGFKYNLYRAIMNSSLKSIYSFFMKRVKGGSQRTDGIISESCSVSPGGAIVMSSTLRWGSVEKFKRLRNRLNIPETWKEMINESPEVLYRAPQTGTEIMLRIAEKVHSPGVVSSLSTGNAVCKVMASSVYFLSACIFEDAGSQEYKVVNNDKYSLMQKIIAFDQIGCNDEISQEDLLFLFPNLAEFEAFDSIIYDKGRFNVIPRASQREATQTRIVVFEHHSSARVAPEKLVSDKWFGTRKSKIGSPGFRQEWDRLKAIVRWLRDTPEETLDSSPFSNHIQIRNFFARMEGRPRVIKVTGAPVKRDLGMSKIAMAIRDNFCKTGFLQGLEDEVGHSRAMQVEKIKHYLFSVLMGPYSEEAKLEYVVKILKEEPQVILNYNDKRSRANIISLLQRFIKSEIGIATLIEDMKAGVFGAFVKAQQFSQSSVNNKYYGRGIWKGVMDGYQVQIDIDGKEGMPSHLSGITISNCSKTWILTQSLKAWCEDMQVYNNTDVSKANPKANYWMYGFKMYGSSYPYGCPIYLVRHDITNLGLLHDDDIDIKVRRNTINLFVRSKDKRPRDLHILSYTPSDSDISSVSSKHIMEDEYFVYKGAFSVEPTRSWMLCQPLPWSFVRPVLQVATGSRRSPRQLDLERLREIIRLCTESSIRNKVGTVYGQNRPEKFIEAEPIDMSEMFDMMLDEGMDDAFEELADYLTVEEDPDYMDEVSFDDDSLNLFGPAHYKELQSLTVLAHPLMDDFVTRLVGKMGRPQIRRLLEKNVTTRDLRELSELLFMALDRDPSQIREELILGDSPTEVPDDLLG
Active and inactive are the calls of the source. The calls are words filed in the database; no cut-off is given here.
Assign a class; possible classes are 1 (active), 0 (inactive)

Before answering, review these 5 worked examples.
Query: Test call, this compound: O=C1c2c(ccc(O)c2O)CN1Cc1ccc(F)cc1
Result: 1

Query: Dear colleague, could you share the recorded outcome for O=C1c2c(ccc(O)c2O)CN1Cc1cc(O)c(O)c(O)c1 when you have a moment?
Result: 1

Query: Hi, sorry to bother you, what did the test record for O=C1c2c(ccc(O)c2O)CN1Cc1ccc([N+](=O)[O-])cc1 ?
Result: 1

Query: Please let me know the test result on file for O=C1c2c(ccc(O)c2O)CN1CCc1ccc(O)cc1 .
Result: 1

Query: Just curious, what result did O=C1c2c(ccc(O)c2O)CN1Cc1ccc(F)c(Cl)c1 get here?
Result: 0

Please look at the following compound next.
Query: Per the records of this test, what outcome belongs to O=C1c2c(ccc(O)c2O)CN1Cc1ccc(O)cc1 ?
Result: 1
